# Target Or System: human NaV 1.8 (Homo sapiens, UniProt Q9Y5Y9)
# Sequence (Q9Y5Y9 whole entry, looked up): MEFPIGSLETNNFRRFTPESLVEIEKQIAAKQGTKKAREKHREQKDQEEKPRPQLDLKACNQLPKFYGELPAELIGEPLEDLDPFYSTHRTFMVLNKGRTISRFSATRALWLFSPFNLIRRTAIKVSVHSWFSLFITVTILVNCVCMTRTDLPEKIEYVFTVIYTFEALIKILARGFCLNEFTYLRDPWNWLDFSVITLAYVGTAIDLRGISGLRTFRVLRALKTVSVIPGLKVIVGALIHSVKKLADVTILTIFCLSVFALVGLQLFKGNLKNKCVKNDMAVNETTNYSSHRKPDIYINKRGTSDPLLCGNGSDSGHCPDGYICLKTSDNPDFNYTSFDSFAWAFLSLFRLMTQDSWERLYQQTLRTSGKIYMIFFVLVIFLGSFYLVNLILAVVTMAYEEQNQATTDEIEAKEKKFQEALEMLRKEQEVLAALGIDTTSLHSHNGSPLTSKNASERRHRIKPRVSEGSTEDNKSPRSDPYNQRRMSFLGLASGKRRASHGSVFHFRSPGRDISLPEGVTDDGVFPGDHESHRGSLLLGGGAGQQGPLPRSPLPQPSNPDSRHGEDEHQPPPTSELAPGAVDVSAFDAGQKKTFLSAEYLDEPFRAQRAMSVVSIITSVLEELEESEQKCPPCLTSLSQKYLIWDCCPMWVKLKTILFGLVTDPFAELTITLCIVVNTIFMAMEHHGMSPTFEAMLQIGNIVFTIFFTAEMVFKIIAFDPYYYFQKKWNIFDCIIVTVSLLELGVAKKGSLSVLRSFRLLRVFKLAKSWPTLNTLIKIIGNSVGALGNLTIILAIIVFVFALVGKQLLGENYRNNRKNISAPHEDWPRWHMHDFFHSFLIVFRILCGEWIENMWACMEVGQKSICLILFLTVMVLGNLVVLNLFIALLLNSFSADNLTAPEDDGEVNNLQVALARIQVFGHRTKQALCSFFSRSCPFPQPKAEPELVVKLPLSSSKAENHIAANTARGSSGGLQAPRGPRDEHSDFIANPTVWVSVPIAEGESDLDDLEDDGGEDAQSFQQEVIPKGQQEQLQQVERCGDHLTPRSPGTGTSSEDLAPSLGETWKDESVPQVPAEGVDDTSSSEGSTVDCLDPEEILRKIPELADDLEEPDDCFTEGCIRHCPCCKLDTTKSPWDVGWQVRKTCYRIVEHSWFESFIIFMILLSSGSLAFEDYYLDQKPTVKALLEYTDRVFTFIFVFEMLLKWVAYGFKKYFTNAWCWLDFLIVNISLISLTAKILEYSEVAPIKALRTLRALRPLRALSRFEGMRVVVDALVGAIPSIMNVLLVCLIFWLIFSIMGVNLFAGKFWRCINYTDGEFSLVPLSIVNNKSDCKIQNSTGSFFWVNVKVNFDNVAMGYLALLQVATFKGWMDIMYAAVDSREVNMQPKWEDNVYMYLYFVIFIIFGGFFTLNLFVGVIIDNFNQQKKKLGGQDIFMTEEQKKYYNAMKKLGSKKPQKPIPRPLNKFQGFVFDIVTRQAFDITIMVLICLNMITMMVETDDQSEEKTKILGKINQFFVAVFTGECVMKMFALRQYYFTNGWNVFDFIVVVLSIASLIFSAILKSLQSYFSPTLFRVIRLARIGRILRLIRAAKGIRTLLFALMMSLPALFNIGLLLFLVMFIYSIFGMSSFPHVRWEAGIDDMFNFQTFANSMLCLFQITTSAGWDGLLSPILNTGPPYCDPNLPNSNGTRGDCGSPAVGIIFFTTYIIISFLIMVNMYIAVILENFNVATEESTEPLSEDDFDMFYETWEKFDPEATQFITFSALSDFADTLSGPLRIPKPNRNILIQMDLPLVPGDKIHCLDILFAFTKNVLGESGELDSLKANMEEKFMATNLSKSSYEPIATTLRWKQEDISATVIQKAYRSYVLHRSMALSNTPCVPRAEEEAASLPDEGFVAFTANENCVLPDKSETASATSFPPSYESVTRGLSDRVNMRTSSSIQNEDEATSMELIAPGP
# Experiment Notes: E-VIPR assay for detecting and measuring NaV inhibition properties
# Format: cell-based
# Applied Conditions: E-VIPR assay conducted in the presence of human serum; HEK cells expressing truncated human NaV 1.8; read-out: IC50
Metric: IC50

compound_structure_string=COc1cc(OC(F)(F)F)ccc1Oc1cc(C(F)(F)F)c(F)cc1C(=O)Nc1cc[n+]([O-])c(C(N)=O)c1 metric=IC50 value_measured="19 nM"
compound_structure_string=COc1cc(Oc2ccc(OC(F)(F)F)c(F)c2OC)c(C(=O)Nc2ccnc(C(N)=O)c2)c(F)c1Cl metric=IC50 value_measured="1.7 nM"
compound_structure_string=COc1c(Oc2ccc(F)c(F)c2C(=O)Nc2cc(C(N)=O)ncc2C)ccc(OC(F)(F)F)c1F metric=IC50 value_measured="54 nM"
compound_structure_string=COc1c(Oc2ccc(C(F)(F)F)c(F)c2C(=O)Nc2cc(C(N)=O)ncn2)ccc(OC(F)(F)F)c1F metric=IC50 value_measured="12.7 nM"
compound_structure_string=NC(=O)c1cc(NC(=O)c2c(Oc3ccc(F)cc3F)cccc2C(F)(F)F)ccn1 metric=IC50 value_measured="> 3000 nM"
compound_structure_string=NC(=O)c1ccc(NC(=O)c2c(Oc3ccc(OC(F)(F)F)cc3F)ccc(C(F)(F)F)c2F)cn1 metric=IC50 value_measured="430 nM"
compound_structure_string=COc1c(Oc2ccc(C3CC3)c(C)c2C(=O)Nc2ccnc(C(N)=O)c2)ccc(OC(F)(F)F)c1F metric=IC50 value_measured="9 nM"

====

Listed next: entries and their corresponding IC50.
# Target Or System: human NaV 1.8 (Homo sapiens, UniProt Q9Y5Y9)
# Experiment Notes: E-VIPR assay for detecting and measuring NaV inhibition properties
# Format: cell-based
# Applied Conditions: E-VIPR assay conducted in the presence of human serum; HEK cells expressing truncated human NaV 1.8; read-out: IC50
Metric: IC50 (nM)

molecule=COc1cc(OC(F)(F)F)ccc1Oc1ccc(C(F)(F)F)c(F)c1C(=O)Nc1cc(C(N)=O)[n+]([O-])cc1C metric=IC50 unit_label=nM result_modifier== value_measured=30
molecule=COc1c(Oc2cc(F)c(F)c(F)c2C(=O)Nc2cnc(C(N)=O)nc2)ccc(OC(F)(F)F)c1F metric=IC50 unit_label=nM result_modifier== value_measured=36
molecule=NC(=O)c1cc(NC(=O)c2cc(C(F)(F)F)ccc2Oc2ccc(F)c(F)c2)ccn1 metric=IC50 unit_label=nM result_modifier== value_measured=1700
molecule="COc1cc(OC(F)(F)F)ccc1Oc1cc(C2CCC(OC)CC2)ccc1C(=O)Nc1ccnc(C(N)=O)c1 (single isomer, unassigned) [1032 (second diastereomer)]" metric=IC50 unit_label=nM result_modifier== value_measured=1550
molecule=Cc1cc(OC(F)(F)F)ccc1Oc1ccc(C(F)(F)F)c(C)c1C(=O)Nc1ccnc(C(N)=O)c1 metric=IC50 unit_label=nM result_modifier== value_measured=9
molecule=COc1c(Oc2cc(C(F)(F)F)cc(F)c2C(=O)Nc2cc(C(N)=O)ncc2C)ccc(OC(F)(F)F)c1F metric=IC50 unit_label=nM result_modifier== value_measured=15.1
molecule=Cc1c(C(F)(F)F)ccc(Oc2ccc(F)c(F)c2)c1C(=O)Nc1ccnc(C(N)=O)c1 metric=IC50 unit_label=nM result_modifier== value_measured=180
molecule=COc1cc(OC(F)(F)F)ccc1Oc1ccc(C(F)(F)F)c(C#N)c1C(=O)Nc1ccnc(C(N)=O)c1 metric=IC50 unit_label=nM result_modifier== value_measured=37
molecule=COc1cc(OC(F)(F)F)ccc1Oc1ccc(C(F)(F)F)c(OC2CC2)c1C(=O)Nc1ccnc(C(N)=O)c1 metric=IC50 unit_label=nM result_modifier== value_measured=180
molecule=COc1cc(OC(F)(F)F)ccc1Oc1cc(C(F)F)cc(C)c1C(=O)Nc1ccnc(C(N)=O)c1 metric=IC50 unit_label=nM result_modifier== value_measured=85
molecule=COc1c(F)cccc1Oc1ccc(C(F)(F)F)cc1C(=O)Nc1ccnc(C(N)=O)c1 metric=IC50 unit_label=nM result_modifier== value_measured=2100
molecule=COc1cc(OC(F)(F)F)ccc1Oc1cc(-c2ccc(Cl)cc2)cc(F)c1C(=O)Nc1ccnc(C(N)=O)c1 metric=IC50 unit_label=nM result_modifier== value_measured=9
molecule=Cc1c(C(F)(F)F)ccc(Oc2ccc(F)c(F)c2F)c1C(=O)Nc1ccc(C(N)=O)nc1 metric=IC50 unit_label=nM result_modifier== value_measured=1500
molecule=[2H]C([2H])([2H])Oc1cc(OC(F)(F)F)ccc1Oc1ccc2c(c1C(=O)Nc1ccc(C(N)=O)nc1)OC(F)(F)O2 metric=IC50 unit_label=nM result_modifier=> value_measured=3000
molecule=COc1cc(OC(F)(F)F)ccc1Oc1ccc(C(F)(F)F)c(OCCN(C)C)c1C(=O)Nc1ccnc(C(N)=O)c1 metric=IC50 unit_label=nM result_modifier=> value_measured=3000
molecule=Cc1cc(Oc2cc(C(F)(F)F)ccc2C(=O)Nc2ccnc(C(N)=O)c2)ccc1F metric=IC50 unit_label=nM result_modifier=> value_measured=3000
molecule=NC(=O)c1cc(NC(=O)c2ccc(C(F)(F)F)cc2-c2ccc(OC(F)(F)F)cc2)ccn1 metric=IC50 unit_label=nM result_modifier=> value_measured=3000
molecule=Cc1cc(Cl)cc(Cl)c1Oc1ccc(C(F)(F)F)c(F)c1C(=O)Nc1ccc(C(N)=O)nc1 metric=IC50 unit_label=nM result_modifier=> value_measured=3000
molecule=COc1cc(OC(F)(F)F)ccc1Oc1cc(C(C)(C)C)cnc1C(=O)Nc1ccnc(C(N)=O)c1 metric=IC50 unit_label=nM result_modifier== value_measured=695
molecule=COc1c(Oc2ccc(OC3CC3)c(F)c2C(=O)Nc2ccnc(C(N)=O)c2)ccc(F)c1F metric=IC50 unit_label=nM result_modifier== value_measured=34
molecule=Cc1c(Oc2ccc(C(F)(F)F)c(C)c2C(=O)Nc2ccnc(C(N)=O)c2)ccc(OC(F)(F)F)c1F metric=IC50 unit_label=nM result_modifier== value_measured=9.9
molecule=NC(=O)c1cc(NC(=O)c2ccc(C(F)(F)F)cc2Oc2ccc(F)c(F)c2)ccn1 metric=IC50 unit_label=nM result_modifier=> value_measured=3000
molecule=[2H]C([2H])([2H])Oc1cc(OC(F)(F)F)ccc1Oc1cc(-c2ccc(C)cc2)cc(F)c1C(=O)Nc1ccnc(C(N)=O)c1 metric=IC50 unit_label=nM result_modifier== value_measured=39
molecule=COc1cc(Oc2ccc(C(F)(F)F)cc2C(=O)Nc2ccnc(C(N)=O)c2)ccc1F metric=IC50 unit_label=nM result_modifier=> value_measured=3000
molecule=[2H]C([2H])([2H])Oc1cc(OC(F)(F)F)ccc1Oc1ccc(C(F)(F)F)c(C)c1C(=O)Nc1ccnc(C(N)=O)c1 metric=IC50 unit_label=nM result_modifier== value_measured=2
molecule="COc1cc(OC(F)(F)F)ccc1Oc1cc(C2CCC(C(F)(F)F)CC2)ccc1C(=O)Nc1ccnc(C(N)=O)c1 (single isomer, unassigned) [158 (second diastereomer)]" metric=IC50 unit_label=nM result_modifier== value_measured=395
molecule=Cc1c(C(F)(F)F)ccc(Oc2ccc(OC(F)(F)F)cc2C2CC2)c1C(=O)Nc1ccnc(C(N)=O)c1 metric=IC50 unit_label=nM result_modifier== value_measured=9
molecule=COc1cc(Oc2ccc(OC(F)(F)F)cc2Cl)c(C(=O)Nc2ccc(C(N)=O)nc2)c(F)c1C(F)(F)F metric=IC50 unit_label=nM result_modifier== value_measured=43

====

Listed next: entries and their corresponding pIC50.
# Target Or System: human NaV 1.8 (Homo sapiens, UniProt Q9Y5Y9)
# Experiment Notes: E-VIPR assay for detecting and measuring NaV inhibition properties
# Assay type: cell-based
# Applied Conditions: E-VIPR assay conducted in the presence of human serum; HEK cells expressing truncated human NaV 1.8; read-out: IC50
pIC50: −log10 of the molar value.
Metric: pIC50

compound=COc1cc(F)ccc1Oc1ccc(C(F)(F)F)c(OC)c1C(=O)Nc1ccnc(C(N)=O)c1 result_modifier== value_measured=6.77
compound=COc1c(C(F)(F)F)ccc(Oc2ccc(OC(C)C)c(Cl)c2)c1C(=O)Nc1ccnc(C(N)=O)c1 result_modifier== value_measured=7.32
compound=Cc1cc(Cl)ccc1Oc1ccc(C(F)(F)F)c(F)c1C(=O)Nc1ccnc(C(N)=O)c1 result_modifier== value_measured=7.48
compound=NC(=O)c1cc(NC(=O)c2c(Oc3ccc(C(F)(F)F)nc3)ccc(C(F)(F)F)c2F)ccn1 result_modifier=< value_measured=5.52
compound=Cc1c(Oc2ccc(Cl)c(F)c2C(=O)Nc2ccnc(C(N)=O)c2)ccc(OC(F)(F)F)c1F result_modifier== value_measured=8.19
compound=COc1ccc(Cl)cc1Oc1ccc(C(F)(F)F)c(OC)c1C(=O)Nc1ccnc(C(N)=O)c1 result_modifier== value_measured=6.29
compound=[2H]C([2H])([2H])Oc1cc(OC(F)(F)F)ccc1Oc1cc(C#CC2CC2)cc(F)c1C(=O)Nc1ccnc(C(N)=O)c1 result_modifier== value_measured=7.00
compound=CC(C)(C)c1cc(Cc2ccc(F)c(F)c2)c(C(=O)Nc2ccnc(C(N)=O)c2)cn1 result_modifier=< value_measured=5.52
compound=COc1cc(OC(F)(F)F)ccc1Oc1cc(C(F)(F)F)c(C)nc1C(=O)Nc1ccnc(C(N)=O)c1 result_modifier== value_measured=6.72
compound=[2H]C([2H])([2H])Oc1cc(OC(F)(F)F)ccc1Oc1cc(-c2cccc(C(F)(F)F)c2)cc(F)c1C(=O)Nc1ccnc(C(N)=O)c1 result_modifier== value_measured=7.41
compound=CCc1cc(C(F)(F)F)cc(Oc2ccc(OC(F)(F)F)cc2OC)c1C(=O)Nc1ccnc(C(N)=O)c1 result_modifier== value_measured=7.57
compound="COc1cc(OC(F)(F)F)ccc1Oc1cc(C2CCC(C(C)(C)C)CC2)cc(F)c1C(=O)Nc1ccnc(C(N)=O)c1 (single isomer, unassigned) [169 (second diastereomer)]" result_modifier== value_measured=7.68
compound=CC(C)(C)c1cc(Cc2ccccc2)c(C(=O)Nc2ccnc(C(N)=O)c2)cn1 result_modifier=< value_measured=5.52
compound=COc1cc(C)cc(OC)c1Oc1ccc(C(F)(F)F)c(F)c1C(=O)Nc1ccc(C(N)=O)nc1 result_modifier=< value_measured=5.52
compound=COc1cc(OC(F)(F)F)ccc1Oc1cc(OC)c(Cl)c(C)c1C(=O)Nc1ccnc(C(N)=O)c1 result_modifier== value_measured=7.46
compound=COc1cc(OC(F)(F)F)ccc1Oc1ccc(C(F)(F)F)c(F)c1C(=O)Nc1cc(C(N)=O)ncn1 result_modifier== value_measured=6.82
compound=COc1cc(OC(F)(F)F)ccc1Oc1cnc(C(F)(F)F)c(C)c1C(=O)Nc1cnc(C(N)=O)nc1 result_modifier== value_measured=7.48
compound=Cc1c(F)ccc(Oc2ccc(C(F)(F)F)c(C)c2C(=O)Nc2ccnc(C(N)=O)c2)c1C result_modifier== value_measured=6.66
compound=COc1c(Oc2cnc(C(F)(F)F)c(OC)c2C(=O)Nc2cc(C(N)=O)ncc2C)ccc(OC(F)(F)F)c1F result_modifier== value_measured=8.15
compound=Cc1c(C(F)(F)F)ccc(Oc2ccc(F)c3c2OCC3)c1C(=O)Nc1ccnc(C(N)=O)c1 result_modifier== value_measured=6.85
compound=COc1cc(F)ccc1-c1ccc(C(F)(F)F)cc1C(=O)Nc1ccnc(C(N)=O)c1 result_modifier=< value_measured=5.52
compound=COc1cc(OC(F)(F)F)ccc1Oc1cc2c(c(F)c1C(=O)Nc1ccc(C(N)=O)nc1)OCCO2 result_modifier== value_measured=6.80
compound="COc1cc(OC(F)(F)F)ccc1Oc1cc(C2CCC(C(C)(C)C)CC2)cc(F)c1C(=O)Nc1ccnc(C(N)=O)c1 (single isomer, unassigned) [169 (first diastereomer)]" result_modifier== value_measured=7.96
compound=Cc1c(Oc2ccc(C(F)(F)F)c(C)c2C(=O)Nc2ccc(C(N)=O)nc2)ccc(F)c1F result_modifier== value_measured=6.21
compound=Cc1c(Oc2ccc(C(F)(F)F)c(F)c2C(=O)Nc2ccc(C(N)=O)nc2)ccc(OC(F)(F)F)c1F result_modifier== value_measured=7.26
compound=COc1cc(OC(F)(F)F)ccc1Oc1cc(OC)c(C(F)(F)F)c(F)c1C(=O)Nc1ccnc(C(N)=O)c1 result_modifier== value_measured=8.74
compound=Cc1cc(OC(F)(F)F)cc(Oc2ccc(OC(F)(F)F)cc2Cl)c1C(=O)Nc1ccnc(C(N)=O)c1 result_modifier== value_measured=6.72
compound=COc1cc(OC(F)(F)F)ccc1Oc1cc(-c2ccc(C(C)(C)C)cc2)cc(F)c1C(=O)Nc1ccnc(C(N)=O)c1 result_modifier== value_measured=7.30
